Data provenance: the RNAGym collection of RNA variant scans (doi:10.1021/acssynbio.7b00057)

variants and their reported aptazyme ON/OFF ratio
B1: Pistol ribozyme (parent)
chain: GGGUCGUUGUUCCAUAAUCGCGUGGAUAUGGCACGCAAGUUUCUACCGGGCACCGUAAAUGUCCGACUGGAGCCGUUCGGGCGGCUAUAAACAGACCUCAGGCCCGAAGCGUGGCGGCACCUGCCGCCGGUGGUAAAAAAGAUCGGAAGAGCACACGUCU

# Variants of: B1
# assay_procedure: aptazyme ON/OFF ratio, guanine; higher = stronger switching; co-transcriptional cleavage with and without guanine
experimental_readout: aptazyme ON/OFF ratio

INSERT INTO assay_data (mutations, observed_measurement) VALUES
  ('U7C U8A G9C U10G U11A C12U C13G', 1.13),
  ('U7G G9U U10G U11C C12U C13G', 1.25),
  ('U7C U8G U11G C13U', 1.14),
  ('G9C U11C C13G', 1.03),
  ('U7C U8G G9U U10C U11C C13A', 1.03),
  ('U7A G9U U11G C12G C13G', 1.32),
  ('U8A G9A U10G C12A C13U', 1.36),
  ('U8A G9C U10A U11G C13A', 1.11),
  ('U7C U10C C12G C13G', 1.18),
  ('U7A U8G G9A U10C C12A C13A', 1.05),
  ('U7G U8G G9A U11G C12A C13G', 1.09),
  ('U7C G9C U10A U11A C12U', 1.05),
  ('U7A U8C G9C U10A U11A C12U C13A', 1.09),
  ('U7G U8C U10A C12U', 1.31),
  ('U7G G9A U10A C12G', 1.18),
  ('U7C U8A U10C U11G C12U', 1.17),
  ('U7A U8C U11C C12U C13G', 1.29),
  ('U7C U8A G9U U11G C12U', 1.4),
  ('U7C U8G G9A U10A C12G', 1.18),
  ('U8G U10G U11A C13A', 1.16),
  ('U8A G9U U10A U11G C13G', 1.08),
  ('U7G U8G G9A C12A C13U', 1.49),
  ('U7A U8A G9U U10A U11G C12U', 1.46),
  ('U8C U10G C12G C13U', 1.12),
  ('U7C G9A U10G U11G C12A C13G', 1.09),
  ('U7G U8C G9U U10C U11G C12G', 1.1),
  ('U7A U8G G9A U10A U11C C13G', 1.04),
  ('U7C U11C C12A', 1.1),
  ('U7C U8A G9U U10G U11G C12U C13U', 1.3),
  ('U7C U8C G9U U10A U11A', 2.27),
  ('U8G G9C U10C U11A C13A', 1.09),
  ('U7G U8A C12A C13U', 1.23),
  ('G9C U10A U11A C12A C13U', 1.27),
  ('U7C G9A U11G C12G', 1.37),
  ('U8C U10C U11C C12G C13G', 1.35),
  ('U7C U8A U10A U11A C12A C13G', 1.17),
  ('U8A G9U U10G U11C C12U', 1.01),
  ('U7A G9C U10G U11C C12G C13G', 1.21),
  ('U7C G9U U10G C12A C13U', 1.24),
  ('U7A U10C C12A', 1.37),
  ('U7G U8C G9U U10C U11G C12G C13G', 1.11),
  ('U7C U8A G9A U10A U11C C12A C13G', 1.12),
  ('U7C U8G G9C U10A C12U C13U', 1.05),
  ('U8C G9A U10C C12G C13A', 1.18),
  ('U8G G9C U10G U11C C12U C13G', 1.02),
  ('U7G U8G G9C U10A U11A C12U C13G', 1.03),
  ('U7A U8C U10G U11G C13U', 1.39),
  ('U7G U8C G9A U10G U11A C13G', 1.04),
  ('U8A U11A C12G', 1.2),
  ('U7C U8C G9U U10A U11G C12G', 1.15),
  ('U7A G9C U10A U11G C12U C13U', 1.16),
  ('U8G G9A U11A C12G', 1.17),
  ('U7C U11C C12U C13G', 1.22),
  ('U7C G9C U10A U11A C13U', 1.05),
  ('U7C U8G G9C U10A U11C C13A', 1.07),
  ('U7G U8C U10C U11A C12U C13G', 1.08),
  ('U7G U8G G9A U10A U11C C12G C13U', 1.13),
  ('U7A G9C U10C C12G C13G', 1.07),
  ('U8C U10G U11G C13A', 1.25),
  ('U8C U10G U11G C12A', 1.18),
  ('U8C G9A U10C U11A C13A', 1.2),
  ('U7A U8C G9C U10G U11A C12A C13A', 1.03),
  ('U7C U8G G9U U10G U11C C13U', 1.16),
  ('U7G U8C C12A C13U', 1.08),
  ('U7C U10G U11C C12G C13G', 1.16),
  ('U7C U8C U10A C12A C13U', 1.04),
  ('U7A G9C C13A', 1.02),
  ('U8G U10G C12U', 1.15),
  ('U7A U10G U11A C13U', 1.06),
  ('U8G U10A U11C C12A C13U', 1.14),
  ('U8G G9U U10A U11G C13A', 1.09),
  ('U7A U8A G9C U10G U11G C12U C13U', 1.18),
  ('U7G U8A U11G C12U', 1.25),
  ('U7C U10C U11A C12G C13A', 1.15),
  ('U7G U11A C12U C13G', 1.14),
  ('U7C U8C G9A U10C C12A C13A', 1.52),
  ('U7G U8C G9A U10A U11A C12G', 1.22),
  ('U7C G9A C13G', 1.03),
  ('U8G G9U U10G U11G', 1.07),
  ('U7C U8G U10C C12G C13G', 1.13),
  ('U7G U8A G9A U10A C12A C13A', 1.2),
  ('U7A U8G G9C U11G', 1.57),
  ('U7A G9A U11C C12A C13A', 1.17),
  ('U7C U8G G9C U10C U11C C12U C13U', 1.03),
  ('U7G U8A G9U U10A U11A C12G C13G', 1.09),
  ('U7C U10G U11G C12U', 1.21),
  ('U7C G9C U10G U11A C12G C13A', 1.13),
  ('U7G G9U U10C U11G C13A', 1.32),
  ('U7A G9U U10A U11A C12A C13U', 1.3),
  ('U7C U8G G9U U10G U11C C12A', 1.18),
  ('U8C U10C C12A C13U', 1.42);
